- assay: Half-life in rat serum
- Type: ADME, organism-based
Measured half-life, listed per entry.

# compound, half-life (h)
measured = [
    ("CCCC[C@H](NC(=O)[C@@H](CO)NC(=O)CN(CCN(C)C)C(=O)O[C@]1(CC)C(=O)OCc2c1cc1n(c2=O)Cc2cc3ccccc3nc2-1)C(=O)N[C@H](Cc1ccc(O)cc1)C(=O)N[C@H](CO)C(=O)N[C@@H]1CSSC[C@H](C(=O)N[C@H](C(N)=O)[C@@H](C)O)NC(=O)[C@H]([C@@H](C)O)NC(=O)[C@H](CCCN)NC(=O)[C@@H](Cc2c[nH]c3ccccc23)NC(=O)[C@H](Cc2ccccc2)NC1=O", 59),
    ("CCCC[C@H](NC(=O)[C@@H](CO)NC(=O)CN(CCN)C(=O)Oc1cc(/C=C\\c2cc(OC)c(OC)c(OC)c2)ccc1OC)C(=O)N[C@H](Cc1ccc(O)cc1)C(=O)N[C@H](CO)C(=O)N[C@@H]1CSSC[C@H](C(=O)N[C@H](C(N)=O)[C@@H](C)O)NC(=O)[C@H]([C@@H](C)O)NC(=O)[C@H](CCCN)NC(=O)[C@@H](Cc2c[nH]c3ccccc23)NC(=O)[C@H](Cc2ccccc2)NC1=O", 4),
]
